target: ALK1 kinase (Homo sapiens (Human)); assay: In vitro enzyme inhibition using scintillation of incorporated radio label (flashplate assay); format: biochemical; details: biotinylated α-casein, 33P-ATP, 500 nM ATP
Sequence (P37023 22-503): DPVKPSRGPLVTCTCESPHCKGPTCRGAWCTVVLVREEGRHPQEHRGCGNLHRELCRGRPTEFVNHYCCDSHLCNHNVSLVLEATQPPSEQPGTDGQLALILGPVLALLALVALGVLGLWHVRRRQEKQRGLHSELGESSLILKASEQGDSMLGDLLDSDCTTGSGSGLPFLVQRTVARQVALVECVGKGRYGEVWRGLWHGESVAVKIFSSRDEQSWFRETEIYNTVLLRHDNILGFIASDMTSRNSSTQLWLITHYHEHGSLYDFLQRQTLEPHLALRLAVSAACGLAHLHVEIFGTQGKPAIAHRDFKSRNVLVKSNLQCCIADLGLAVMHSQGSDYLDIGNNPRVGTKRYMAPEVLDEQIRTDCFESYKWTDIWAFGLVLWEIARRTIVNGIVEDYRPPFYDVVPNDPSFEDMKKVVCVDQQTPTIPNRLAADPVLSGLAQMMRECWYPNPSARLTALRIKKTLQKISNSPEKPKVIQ
Measurement type: pIC50
API: returns pIC50 as number; meaning -log10 of concentration in mol/L.

Some compounds with known pIC50 results, for comparison:
Nc1ncnn2c(CN3CCC(O)C3)cc(-c3cc(F)c(CO)c(F)c3)c12 (stereo not shown) [Example 26] = 7.52
Cc1nc(-c2cc(-c3cc(F)c(CO)c(F)c3)c3c(N)ncnn23)cs1 [Example 14] = 8.28
CCc1cc(-c2cc([C@H]3CC[C@H](O)CC3)n3ncnc(N)c23)cc(F)c1CO [Example 28] = 6.77

Here is another compound to look at.
[ask] Check the records and state pIC50 for NCc1nc(-c2cc(-c3cc(F)c(CO)c(F)c3)c3c(N)ncnn23)cs1 [Example 34]
[reply] 8.39

====

pIC50 by entry:
biological target: ALK1 kinase (Homo sapiens (Human)); test: In vitro enzyme inhibition using scintillation of incorporated radio label (flashplate assay); assay type: biochemical; details: biotinylated α-casein, 33P-ATP, 500 nM ATP
API: returns pIC50 as number; meaning -log10 of concentration in mol/L.

Nc1ncnn2c(CN3CCCC(O)C3)cc(-c3cc(F)c(CO)c(F)c3)c12 (stereo not shown) = 7.15
Cc1cc(-c2cc(C3CCNC3)n3ncnc(N)c23)cc(F)c1CO (stereo not shown) = 8.40
Nc1ncnn2c(C3(O)CCCNC3)cc(-c3cc(F)c(CO)c(F)c3)c12 (racemic) = 8.24

[ask] Check the records and state pIC50 for CC(C)c1cc(-c2cc(F)c(CO)c(F)c2)c2c(N)ncnn12
[reply] 8.72
